- Test system: Mus musculus
- testDescription: Tested for antiinflammatory activity on mouse type II collagen arthritis as Paw swelling of all animals in each group on day 37 at intraperitoneal dose of 6 mg/kg
- Assay type: functional
# Paw swelling per record follows

# molecule, targetUnderTest, Paw swelling
data = [
    ("Cc1c(CNc2ccc(C(=O)NC(CCC(=O)O)C(=O)O)s2)cnc2nc(N)nc(N)c12 (centres undefined)", "Mus musculus", "2.13 mm"),
    ("Cc1c(CN(C)c2ccc(C(=O)NC(CCC(=O)O)C(=O)O)s2)cnc2nc(N)nc(N)c12 (centres undefined)", "Mus musculus", "2.19 mm"),
    ("Nc1nc(N)c2cc(CCc3ccc(C(=O)NC(CCC(=O)O)C(=O)O)cc3)cnc2n1 (centres undefined)", "Mus musculus", "2.26 mm"),
    ("C=CCN(Cc1cnc2nc(N)nc(N)c2c1C)c1ccc(C(=O)NC(CCC(=O)O)C(=O)O)cc1 (centres undefined)", "Mus musculus", "2.15 mm"),
    ("Cc1c(CCc2ccc(C(=O)NC(CCC(=O)O)C(=O)O)cn2)cnc2nc(N)nc(N)c12 (centres undefined)", "Mus musculus", "2.59 mm"),
    ("C#CCN(Cc1cnc2nc(N)nc(N)c2c1CC)c1ccc(C(=O)NC(CCC(=O)O)C(=O)O)cc1 (centres undefined)", "Mus musculus", "2.21 mm"),
    ("Cc1c(CCc2ccc(C(=O)NC(CCC(=O)O)C(=O)O)cc2)cnc2nc(N)nc(N)c12 (centres undefined)", "Mus musculus", "2.81 mm"),
    ("CCCc1c(CNc2ccc(C(=O)NC(CCC(=O)O)C(=O)O)cc2)cnc2nc(N)nc(N)c12 (centres undefined)", "Mus musculus", "2.22 mm"),
]

Turning now to a further record.
Summary line: CCC(Cc1cnc2nc(N)nc(N)c2c1)c1ccc(C(=O)NC(CCC(=O)O)C(=O)O)cc1 (centres undefined) , Mus musculus, reported Paw swelling = 2.8 mm

---

# Animals per record follows
- System: Mus musculus
- testDescription: Incidence of disease (mouse type II collagen) was scored as the percentage of animals within each experimental group that exhibited joint or limb inflammation on day 30 at intraperitoneal dose of 12 mg/kg
- Format: functional
// units = %; emit number, no label

# example entries with known answers
# compound, targetUnderTest, testResult
measured = [
    ("C#CCN(Cc1cnc2nc(N)nc(N)c2c1CC)c1ccc(C(=O)NC(CCC(=O)O)C(=O)O)cc1 (stereo unspecified)", "Mus musculus", 12),
    ("Cc1c(CCc2ccc(C(=O)NC(CCC(=O)O)C(=O)O)cn2)cnc2nc(N)nc(N)c12 (stereo unspecified)", "Mus musculus", 38),
    ("Nc1nc(N)c2cc(CCc3ccc(C(=O)NC(CCC(=O)O)C(=O)O)cc3)cnc2n1 (stereo unspecified)", "Mus musculus", 12),
    ("Cc1c(CCc2ccc(C(=O)NC(CCC(=O)O)C(=O)O)cc2)cnc2nc(N)nc(N)c12 (stereo unspecified)", "Mus musculus", 75),
    ("Nc1nc(N)c2cc(CCc3ccc(C(=O)NC(CCC(=O)O)C(=O)O)cn3)cnc2n1 (stereo unspecified)", "Mus musculus", 62),
]

Turning now to a further record.
Measured Animals of C=CCC(Cc1cnc2nc(N)nc(N)c2c1C)c1ccc(C(=O)NC(CCC(=O)O)C(=O)O)cc1 (stereo unspecified) : 38
